Entry source: patent US7772268B2

Assign IC50 to each entry below.
biological target: endothelial lipase (EL) (Homo sapiens); construct: made in house; host or cells: recombinant cell lines CHO, HEK293 (conditioned medium, concentrated); experiment: EL inhibition assay (conditioned medium of recombinant cell lines, Bodipy phospholipid substrate); format: biochemical; conditions: EL from conditioned medium (CHO, HEK293); 37° C., 60 minutes
Sequence (Q9Y5X9 21-500, species assumed): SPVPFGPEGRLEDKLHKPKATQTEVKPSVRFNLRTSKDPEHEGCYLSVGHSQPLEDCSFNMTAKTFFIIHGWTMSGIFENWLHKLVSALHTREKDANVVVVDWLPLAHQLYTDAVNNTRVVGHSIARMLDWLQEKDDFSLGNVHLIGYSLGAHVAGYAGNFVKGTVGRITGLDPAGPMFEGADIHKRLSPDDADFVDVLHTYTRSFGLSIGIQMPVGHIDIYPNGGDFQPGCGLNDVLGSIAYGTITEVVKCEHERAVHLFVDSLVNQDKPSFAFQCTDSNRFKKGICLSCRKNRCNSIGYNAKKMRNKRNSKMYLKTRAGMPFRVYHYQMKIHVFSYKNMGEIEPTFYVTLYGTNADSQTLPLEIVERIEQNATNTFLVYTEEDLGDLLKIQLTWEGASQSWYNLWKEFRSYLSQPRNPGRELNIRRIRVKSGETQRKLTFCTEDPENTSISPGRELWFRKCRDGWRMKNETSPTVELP
Please state the value followed by its unit.

Cc1ccccc1CNC(=O)n1c(=O)c2ccccc2n1C(=O)NCc1ccccc1C [Example 13] :: 0.84 µM
O=C(NCc1ccccc1)Oc1nn(C(=O)NCc2ccccc2)c2cc(Cl)ccc12 [Example 11b] :: 1.47 µM

// batch mode: one IC50 value per listed entry
1. CCCCCCNC(=O)Oc1nn(C(=O)NCCCCCC)c2cc(Cl)ccc12 [Example 10b]
2. Cc1ccccc1CNC(=O)n1c(=O)c2ccccc2n1C(=O)N1CCC(C)CC1 [Example 12]

0.06 µM
0.22 µM

* * *

molecular target: hormone sensitive lipase, HSL (Rattus norvegicus); construct: Isolated rat fat cells are obtained from epididymal adipose tissue; from tissue; host or cells: rat epididymal adipose tissue (isolated fat cells, Wistar rats); assay: HSL inhibition assay (partially purified HSL, [3H]trioleoylglycerol substrate); assay type: biochemical; details: partially purified HSL from rat fat cells; 37° C., 30 min
Sequence (P15304 301-1068 limits assumed): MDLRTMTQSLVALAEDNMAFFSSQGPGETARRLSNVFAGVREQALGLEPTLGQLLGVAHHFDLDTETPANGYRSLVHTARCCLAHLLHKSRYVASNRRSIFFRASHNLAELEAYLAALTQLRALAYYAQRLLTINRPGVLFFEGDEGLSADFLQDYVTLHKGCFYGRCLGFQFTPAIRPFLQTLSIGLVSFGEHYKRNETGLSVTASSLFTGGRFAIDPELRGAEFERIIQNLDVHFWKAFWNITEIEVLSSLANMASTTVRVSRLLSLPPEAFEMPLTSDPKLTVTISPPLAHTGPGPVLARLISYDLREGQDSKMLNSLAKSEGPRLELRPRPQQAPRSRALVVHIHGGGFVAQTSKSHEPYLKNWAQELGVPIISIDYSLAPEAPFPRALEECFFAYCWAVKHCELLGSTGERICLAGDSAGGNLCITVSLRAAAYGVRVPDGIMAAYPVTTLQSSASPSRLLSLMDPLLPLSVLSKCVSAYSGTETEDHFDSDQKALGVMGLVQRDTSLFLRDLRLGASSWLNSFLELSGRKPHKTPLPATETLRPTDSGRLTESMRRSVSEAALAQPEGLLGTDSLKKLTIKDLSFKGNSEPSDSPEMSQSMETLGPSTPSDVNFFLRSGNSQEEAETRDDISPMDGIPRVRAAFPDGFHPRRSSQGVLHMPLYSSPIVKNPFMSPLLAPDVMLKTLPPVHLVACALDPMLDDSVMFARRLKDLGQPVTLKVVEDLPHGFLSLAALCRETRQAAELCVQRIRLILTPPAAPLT
Assign IC50 to each entry below.
Give bare numbers, in µM.

// worked examples, IC50 included
O=C(N1CCN(c2ccccc2)CC1)n1c(=O)c2ccc(F)cc2n1C(=O)N1CCN(c2ccccc2)CC1 [Example 1b] :: 0.62
O=C(Oc1nn(C(=O)N2CCc3sccc3C2)c2cc(F)ccc12)N1CCc2sccc2C1 [Example 2] :: 1.11
CC1CCN(C(=O)Oc2nn(C(=O)N3CCC(C(F)(F)F)CC3)c3cc(N)ccc23)CC1 [Example 14] :: 1
CC1CCN(C(=O)Oc2nn(C(=O)N3CCC(C)CC3)c3cc(F)ccc23)CC1 [Example 9b] :: 1.15
Cc1cc(O)nc2c1c(OC(=O)N1CCC(C)CC1)nn2C(=O)N1CCC(C(F)(F)F)CC1 [Example 16] :: 0.58
O=C(Oc1nn(C(=O)N2CCN(c3ccccc3)CC2)c2cc(F)ccc12)N1CCN(c2ccccc2)CC1 [Example 1a] :: 0.32

Turning to the following compound.
IC50 for Cc1cc(O)nc2c1c(OC(=O)N1CCC(C(F)(F)F)CC1)nn2C(=O)N1CCN(C)CC1 [Example 15] is 1.5
